- EXPERIMENT SUMMARY: viability loss in pontine glioma line – cell-based, SU-DIPG-XIII, MIPE4.0, CellTiter-Glo, qHTS, dose response (AID 1347061);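 also: cells exposed to compound for 48 hours before readout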
- CONDITIONS USED: CellTiter-Glo ATP luminescence
Results filed as inconclusive are left out. Activity calls are given as the source filed them. The limit is not given here; nearly all actives have AC50 up to about 37 µM.
EXPERIMENTAL ENDPOINT: AC50

In the examples that follow, each entry is paired with its recorded AC50.
{"COMPOUND SMILES": "Nc1ccc(S(=O)(=O)Nc2ccnn2-c2ccccc2)cc1", "MEASURED": "inactive"}
{"COMPOUND SMILES": "O=C(c1ccc(F)cc1)C1CCN(CCn2c(=O)[nH]c3ccccc3c2=O)CC1", "MEASURED": "inactive"}
{"COMPOUND SMILES": "O=P(O)(O)C(O)(Cc1cccnc1)P(=O)(O)O", "MEASURED": "inactive"}
{"COMPOUND SMILES": "CCCc1nc(C)c2c(=O)[nH]c(-c3cc(S(=O)(=O)N4CCN(CC)CC4)ccc3OCC)nn12", "MEASURED": "13.2 µM (active)"}

Quick one: give measured AC50 for OC[C@H]1O[C@@H](Oc2ccc(O)cc2)[C@H](O)[C@@H](O)[C@@H]1O inactive

Kindly indicate its recorded AC50. Item: Nc1nc(N)nc(-c2cc(Cl)ccc2Cl)n1 inactive

State its AC50 for this molecule: CC(C)(C)NC(=O)[C@@H]1CN(Cc2cccnc2)CCN1C[C@@H](O)C[C@@H](Cc1ccccc1)C(=O)N[C@H]1c2ccccc2C[C@H]1O 1.32 µM (active)

Supply AC50 value. Item: C/C=C(/C(=C/C)c1ccc(O)cc1)c1ccc(O)cc1 inactive

Give the reported AC50 for this molecule. Cc1onc(-c2ccccc2Cl)c1C(=O)N[C@@H]1C(=O)N2[C@@H]1SC(C)(C)[C@@H]2C(=O)O inactive

Find the measured AC50 of NC(=O)N/N=C/c1ccc([N+](=O)[O-])o1 and report it. inactive

---

- TESTED SYSTEM: NAD(+) hydrolase SARM1 (Homo sapiens) (UniProt Q6SZW1)
- Sequence (Q6SZW1 whole entry, looked up): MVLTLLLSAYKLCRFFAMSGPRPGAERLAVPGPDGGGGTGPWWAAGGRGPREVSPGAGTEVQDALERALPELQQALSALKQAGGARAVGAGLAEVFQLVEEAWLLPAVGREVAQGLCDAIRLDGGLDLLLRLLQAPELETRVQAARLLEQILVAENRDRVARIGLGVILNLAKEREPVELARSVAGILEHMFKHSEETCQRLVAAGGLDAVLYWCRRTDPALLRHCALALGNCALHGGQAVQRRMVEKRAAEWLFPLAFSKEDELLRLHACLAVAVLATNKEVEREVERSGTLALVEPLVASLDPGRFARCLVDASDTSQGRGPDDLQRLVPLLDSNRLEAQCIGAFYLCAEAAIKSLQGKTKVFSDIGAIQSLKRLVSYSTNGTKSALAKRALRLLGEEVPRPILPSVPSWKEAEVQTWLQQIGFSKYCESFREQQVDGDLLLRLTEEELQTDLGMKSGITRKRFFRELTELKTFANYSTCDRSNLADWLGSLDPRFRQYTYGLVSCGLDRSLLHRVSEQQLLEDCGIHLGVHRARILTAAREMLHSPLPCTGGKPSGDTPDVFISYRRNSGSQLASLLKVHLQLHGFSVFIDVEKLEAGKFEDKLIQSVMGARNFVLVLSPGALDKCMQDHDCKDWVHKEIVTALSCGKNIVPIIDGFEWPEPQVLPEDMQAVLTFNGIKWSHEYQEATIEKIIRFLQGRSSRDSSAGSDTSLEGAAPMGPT
- EXPERIMENT SUMMARY: blocking NAD cleavage by SARM1 SAM-TIR – cell lysate, NAD-Glo luminescence (AID 1508614);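 also: higher remaining NAD means stronger inhibition of SARM1 NADase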
- CONDITIONS USED: SAM-TIR HEK293T lysate NADase, at 1 µM
Active and inactive are the calls of the source.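 Rule for the calls: active = compound whose remaining NAD level is above about 45 nM (limit read from the data); inactive = the rest.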
Your reply should match one of these outcome classes. active, inactive

Here are 2 compounds together with their reported answers.
{"COMPOUND": "O=c1[nH]c(=O)n([C@H]2C[C@H](O)[C@@H](CO)O2)cc1F", "CLASS ASSIGNMENT": "inactive"}
{"COMPOUND": "Nc1ccn([C@H]2CC[C@@H](CO)O2)c(=O)n1", "CLASS ASSIGNMENT": "inactive"}

What did this assay record as the result for C#CCN(C)Cc1ccccc1 ? inactive

---

- EXPERIMENT SUMMARY: Wnt pathway potentiators raising nuclear beta-catenin – imaging, WNT3A-conditioned medium, mouse C2C12, NPC library, primary screen (AID 1117326); also: reference of the scale not given here
- CONDITIONS USED: at 10 µM, active compounds read high
Reported nuclear beta-catenin stimulation values for a set of molecules
Give the number; % is assumed, so skip it.

Report nuclear beta-catenin stimulation for CCCCC1(COC(=O)CCC(=O)O)C(=O)N(c2ccccc2)N(c2ccccc2)C1=O 6.3
